- Tested on: HL-60(TB) leukemia
- experimentDescription: NCI-60 one-dose screen, 48 h
- protocolConditions: 10 µM unless noted
Compounds without any hit were thinned out: in the full panel of roughly 83,000, 20% have a hit. Active and inactive are the calls of the source. Rule for the calls: active = growth percent below 10; inactive = the rest.
Response enum: 1 (yes) (active), 0 (no) (inactive)

Some solved entries appear below for comparison.
[[record]]
molecule = "COc1ccc(C(c2cc(OC)c(OC)c(OC)c2)n2cncn2)cc1O (stereo not given)"
discretelabel = "1 (yes)"

[[record]]
molecule = "Cc1cc(C)c2c(N)c3cccc(C)c3nc2n1"
discretelabel = "1 (yes)"


Prompt: Recorded test call requested for COc1ccc(-c2nc(C#N)c(NCC(c3ccc(Cl)cc3)N3CCCCC3)o2)cc1 (stereo not given)
Response: 0 (no)

Prompt: Query: recorded result category for "CCOC(=O)c1cc2c(n1Cc1cc(OC)cc(OC)c1Br)-c1nc(NC(C)=O)sc1CCC2" in this test
Response: 0 (no)

Prompt: Hi, do you know how COC1/C=C\OC2(C)Oc3c(C)c(O)c4c(O)c(c(CN(C)CCO)c(O)c4c3C2=O)NC(=O)/C(C)=C\C=C/C(C)C(O)C(C)C(O)C(C)C(OC(C)=O)C1C (stereo not given) came out in this test?
Response: 0 (no)

###

- Test system: HL-60(TB) leukemia
- experimentDescription: NCI-60 one-dose screen, 48 h (100 = growth as untreated, 0 = no growth, -100 = all killed)
- protocolConditions: 10 µM unless noted
This is part of a sample that, as a whole, favours compounds with a hit. Of some 83,000 tested, about 20% had one in any assay.
// reported growth per item
The figure you give is taken to be in %; do not add the unit.

Below are worked cases with known answers.
[[record]]
compound = "O=C1c2cc3c(cc2-c2c1c1ccc(F)cc1c(=O)n2C[C@H](O)[C@@H](O)[C@H](O)CO)OCO3"
quantity = "growth"
unitannotation = "%"
quantitativereadout = -3.71

[[record]]
compound = "CC(C)(C)OC(=O)CC(S(=O)(=O)c1ccccc1)S(=O)(=O)c1ccccc1"
quantity = "growth"
unitannotation = "%"
quantitativereadout = 76.2

[[record]]
compound = "CCCCCc1ccc(S(=O)(=O)Nc2cc(-c3csc(NC(C)=O)n3)ccc2N2CCN(C)CC2)cc1"
quantity = "growth"
unitannotation = "%"
quantitativereadout = -61.7


Prompt: Quick one: give measured growth for "O=c1n(Cc2ccc3ccccc3c2)ccn1Cc1ccc2ccccc2c1"
Response: 103

Prompt: For the compound O=P(O)(O)OCC1OC(n2cnc3c(NCc4ccco4)ncnc32)C(O)C1O (stereo not given) , give its reported growth.
Response: -6.93

Prompt: Consider the compound "Cc1ccc(N=Nc2c(N)nn(-c3ccccc3)c2N)cc1" . State its measured growth.
Response: 17.5

Prompt: Respond only with growth recorded for "CC1=CC(C)(C)NC(=S)N1c1ccc(S(=O)(=O)O)c2cccc(S(=O)(=O)O)c12"
Response: 106

Prompt: Consider the compound "CC(=O)c1c(/C=C/c2ccc(C)cc2)c2ccccc2[nH]c1=O" . State its measured growth.
Response: 99.3

Prompt: Fill in growth for record "COc1ccc(-c2cc(-c3ccc(OC)c(OC)c3)nc(SCCCC(=O)NO)n2)cc1"
Response: -34.9

Prompt: Provide measured growth value, entry: "CCCCCSB(SCCCCC)c1ccccc1"
Response: 104

###

- Test system: HL-60(TB) leukemia
- experimentDescription: NCI-60 one-dose screen, 48 h
- protocolConditions: 10 µM unless noted
- Method: Growth inhibition of the HL-60(TB) human tumor cell line is measured as a screen for anti-cancer activity. Cells are grown in 96 well plates and exposed to the test compound for 48 hours. Compounds are tested at a single concentration, which is 10^-5 M for most compounds. The reported endpoint is percent growth (GI% or GIPRCNT), where numbers from 0 - 100% represent growth inhibition, and numbers from -100% - 0 represent cell death. For example, a value of 40 represents 60% growth inhibition. […]
The panel holds about 83,000 compounds, 20% with a hit somewhere; the sample as a whole holds those more often. Active and inactive are the calls of the source. Rule for the calls: active = growth percent below 10; inactive = the rest.
Tick one outcome: 1.0 = active, 0.0 = inactive

See these solved cases before continuing.
[[record]]
molecule = "O=C1CCCCC1(c1ccccc1)c1ccccc1"
discretelabel = 0.0

[[record]]
molecule = "c1cc2cccc3c4cccc5cccc(c(c1)c23)c54"
discretelabel = 0.0

[[record]]
molecule = "COc1ccc(-c2nc(SCCC(C)C)nc(N/N=C(/C)c3ccc(C)cc3)c2C#N)cc1"
discretelabel = 0.0


Prompt: Kindly provide the recorded test outcome for the following molecule: "O=C(/C=C/c1ccc(Cl)cc1)c1ccc(Nc2nc(NCCO)nc(N3CCOCC3)n2)cc1"
Response: 0.0

Prompt: Hi, do you know how COc1ccc2nc3cc(Cl)ccc3c(NCCNCC(O)CO)c2c1 (configuration not stated) came out in this test?
Response: 0.0

Prompt: Assay result, entry "COc1ccc(CN2C(=O)/C(=C\c3cc(OC)c(OC)c(OC)c3)c3cc(OC)ccc32)cc1" — outcome?
Response: 1.0

Prompt: Would you mind telling me which call this test gave "CNC(=O)c1cc(Oc2ccc3nc(NC(=O)Nc4ccc(C(F)(F)F)cc4)sc3c2)ccn1" ?
Response: 0.0

Prompt: How was "CC1(C)Nc2cccc3c(N=Nc4ccc(N=Nc5ccccc5)c5ccccc45)ccc(c23)N1" classified in this test?
Response: 0.0

###

Collected growth values appear next to each entry.
- System: HL-60(TB) leukemia
- experimentDescription: NCI-60 one-dose screen, 48 h (100 = growth as untreated, 0 = no growth, -100 = all killed)
- protocolConditions: 10 µM unless noted
This is part of a sample that, as a whole, favours compounds with a hit. Of some 83,000 tested, about 20% had one in any assay. Activity calls are given as the source filed them. The calls were made as follows: active = growth percent below 10; inactive = the rest.

A selection of reference data follows.
[[record]]
compound = "Cc1cc(N2CCN(c3ccnc4cc(Cl)ccc34)CC2)nc(NC2CCCCC2)n1"
result = "-54.1% (active)"

[[record]]
compound = "CNC(=O)c1cc(Oc2ccc3nc(Nc4ccc(Cl)c(C(F)(F)F)c4)ccc3c2)ccn1"
result = "62.6% (inactive)"

[[record]]
compound = "Cc1ccccc1NC(=O)CN(C)C"
result = "87.9% (inactive)"


Prompt: # return recorded growth for input "COc1ccc(OC)c(C(=O)Nc2cccc(-c3cc(=O)c4ccccc4o3)c2)c1"
Response: 89.4% (inactive)

Prompt: Return growth (reported value) for this compound: "CCCCSCC(=O)c1ccccc1"
Response: 63.4% (inactive)

Prompt: Output measured growth for this item: CC(C)(C)[Si](C)(C)OC1[C@@H](COC(=O)NC(=O)CCl)O[C@@H](n2cnc3c(N)ncnc32)[C@H]1O[Si](C)(C)C(C)(C)C (stereo not given in full)
Response: -48.3% (active)

Prompt: Read off the recorded growth for "O=[N+]([O-])c1ccccc1NC1c2ccccc2Oc2ccccc21"
Response: -14.4% (active)

Prompt: Respond only with growth recorded for "COc1cc(-c2ccc(-c3ccc(C(=N)N)cc3)s2)cc(OC)c1OC"
Response: 3.15% (active)

Prompt: Supply growth value. Item: "COc1ccccc1/C=C1\Oc2cc(OCCN3CCC(Cc4ccccc4)CC3)ccc2C1=O"
Response: 97.1% (inactive)

Prompt: Provide only the value of recorded growth for "O=C1Nc2ccc(Cl)cc2[C@@](C#CC2CC2)(C(F)(F)F)O1"
Response: 96.5% (inactive)

###

- Test system: HL-60(TB) leukemia
- experimentDescription: NCI-60 one-dose screen, 48 h
- protocolConditions: 10 µM unless noted
About 83,000 compounds went through this panel and 20% of them were active in at least one assay; those are over-represented in the sample as a whole. Active and inactive are the calls of the source. Rule for the calls: active = growth percent below 10; inactive = the rest.
The reply should name one outcome from active, inactive

[[record]]
compound = "Cc1[nH]n(C(N)=S)c(=O)c1N=Nc1ccc(F)c(Cl)c1"
discretelabel = "inactive"

[[record]]
compound = "Nc1nc(Nc2ccc([N+](=O)[O-])cc2O)nc(C(Cl)(Cl)Cl)n1"
discretelabel = "active"

[[record]]
compound = "O=C(CCCCCCN1CC(=O)N2[C@@H](c3ccc(Cl)c(Cl)c3)c3[nH]c4ccccc4c3C[C@H]2C1=O)NO"
discretelabel = "active"

[[record]]
compound = "COc1ccc2[nH]c(O)c(N=NC(=O)c3oc4ccccc4c3C)c2c1"
discretelabel = "inactive"

[[record]]
compound = "C/C=C(/C(=O)NC(N)=O)C(C)C"
discretelabel = "inactive"

[[record]]
compound = "C(=N\\Nc1ncnc2sc3c(c12)CCNC3)/c1cccc2ccccc12"
discretelabel = "inactive"


Prompt: Which outcome was assigned to CC(=O)O[C@H]1CCC2C3CCC4=C/C(=N/O)CCC4(C)C3CCC21C (stereo partly specified) in this test?
Response: inactive

Prompt: Could you kindly confirm the outcome this assay logged for "COc1cc2cc(NCc3ccc(Cl)cc3)nc(C)c2cc1OC" ?
Response: inactive

Prompt: Could you please tell me the result logged for "COc1ccc(C(=O)/C=C/c2cc3c(c(OC)c2)OCC(=O)N3)cc1" in this assay?
Response: active
